// data source = patent US20220153746A1

# assay.explanation: PK Phase (Group 2): plasma concentrations and pharmacokinetics of Compound 18 and its metabolite Compound 4 after once daily ocular instillation of Compound 18 nanosuspension for 7 days
# Format: in vivo, New Zealand white rabbits
# cond: male, New Zealand white, rabbit, plasma, topical or ocular, 0.8 mg/kg, plasma, Day 7, Compound 18 0.8 mg/kg ocular instillation; animal 207667; read-out: AUC0-24
Reported AUC(0-t) values follow for various compounds
Record the value in ng·h/mL, omitting the unit from your answer.

q: Please look up its AUC(0-t): CCCc1nn(C)c2c(=O)[nH]c(-c3cc(S(=O)(=O)N4CC(CCCO)C4)ccc3OCC)nc12 [Compound 4]
a: 2.08

q: One more compound: CCCc1nn(C)c2c(=O)[nH]c(-c3cc(S(=O)(=O)N4CC(CCCO[N+](=O)[O-])C4)ccc3OCC)nc12 [Compound 18]
a: 0.644

====

# assay.explanation: TD Phase (Groups 1 and 3): plasma and ocular tissue concentrations and pharmacokinetics of Compound 18 and its metabolite Compound 4 after once daily ocular instillation of Compound 18 nanosuspension for 7 days
# Type: in vivo, New Zealand white rabbits
# cond: male, New Zealand white, rabbit, topical or ocular; Aqueous Humor; Day 7; Compound 18 0.8 mg/kg ocular instillation once daily; Groups 1 and 3
value.kind: half-life (min)
State the answer as a number, implicitly in min.

q: Looking for the measured half-life of CCCc1nn(C)c2c(=O)[nH]c(-c3cc(S(=O)(=O)N4CC(CCCO)C4)ccc3OCC)nc12 [Compound 4] , can you help?
a: 117

====

# assay.explanation: TD Phase (Groups 1 and 3): plasma and ocular tissue concentrations and pharmacokinetics of Compound 18 and its metabolite Compound 4 after once daily ocular instillation of Compound 18 nanosuspension for 7 days
# Format: in vivo, New Zealand white rabbits
# cond: male, New Zealand white, rabbit, topical or ocular; Vitreous Humor; Day 7; Compound 18 0.8 mg/kg ocular instillation once daily; Groups 1 and 3
value.kind: Cmax (ng/mL)
Reply with just the number (in ng/mL).

q: // query Cmax value for entry `CCCc1nn(C)c2c(=O)[nH]c(-c3cc(S(=O)(=O)N4CC(CCCO)C4)ccc3OCC)nc12`
a: 2.32

====

The entries below are paired with their reported Tmax.
# assay.explanation: PK Phase (Group 2): plasma concentrations and pharmacokinetics of Compound 18 and its metabolite Compound 4 after once daily ocular instillation of Compound 18 nanosuspension for 7 days
# Format: in vivo, New Zealand white rabbits
# cond: male, New Zealand white, rabbit, plasma, topical or ocular, 0.8 mg/kg, plasma, Day 1, Compound 18 0.8 mg/kg ocular instillation; Mean, n=4
Give the quantity in min, number only.

CCCc1nn(C)c2c(=O)[nH]c(-c3cc(S(=O)(=O)N4CC(CCCO)C4)ccc3OCC)nc12 : 30

Proceeding to the next compound to report its Tmax.
q: Could you tell me which Tmax is on file for `CCCc1nn(C)c2c(=O)[nH]c(-c3cc(S(=O)(=O)N4CC(CCCO[N+](=O)[O-])C4)ccc3OCC)nc12` ?
a: 30

====

# assay.explanation: PK Phase (Group 2): plasma concentrations and pharmacokinetics of Compound 18 and its metabolite Compound 4 after once daily ocular instillation of Compound 18 nanosuspension for 7 days
# Type: in vivo, New Zealand white rabbits
# cond: male, New Zealand white, rabbit, plasma, other: ocular instillation (eye drop), 0.821 mg/kg/day, 4 h; animal 207666; read-out: Day 7 Compound 18 Plasma Concentration
value.kind: concentration at 4 h (ng/mL)
Reply with just the number (in ng/mL).

q: GET /values?readout=concentration at 4 h&item= CCCc1nn(C)c2c(=O)[nH]c(-c3cc(S(=O)(=O)N4CC(CCCO[N+](=O)[O-])C4)ccc3OCC)nc12 [Compound 18]
a: 0.0678

====

# assay.explanation: TD Phase (Groups 1 and 3): plasma and ocular tissue concentrations and pharmacokinetics of Compound 18 and its metabolite Compound 4 after once daily ocular instillation of Compound 18 nanosuspension for 7 days
# Type: in vivo, New Zealand white rabbits
# cond: male, New Zealand white, rabbit, aqueous humor, other: ocular instillation (eye drop), 0.8 mg/kg/day, TD Phase, Group 1, 1 h, Mean, BQL set to 0; read-out: Compound 18 Aqueous Humor Conc.
value.kind: concentration at 1 h (ng/mL)
Field format: number, assumed ng/mL, no unit text.

q: State the recorded concentration at 1 h for this entry: CCCc1nn(C)c2c(=O)[nH]c(-c3cc(S(=O)(=O)N4CC(CCCO[N+](=O)[O-])C4)ccc3OCC)nc12 [Compound 18]
a: 0.063

====

# assay.explanation: TD Phase (Groups 1 and 3): plasma and ocular tissue concentrations and pharmacokinetics of Compound 18 and its metabolite Compound 4 after once daily ocular instillation of Compound 18 nanosuspension for 7 days
# Format: in vivo, New Zealand white rabbits
# cond: male, New Zealand white, rabbit, trabecular meshwork, other: ocular instillation (eye drop), 0.798 mg/kg/day, TD Phase, Group 3, 4 h, Mean; read-out: Final Compound 18 Trabecular Meshwork Conc.
value.kind: concentration at 4 h (ng/g)
# number only, unit ng/g dropped from output

q: What value of concentration at 4 h has been recorded for this entry: `CCCc1nn(C)c2c(=O)[nH]c(-c3cc(S(=O)(=O)N4CC(CCCO[N+](=O)[O-])C4)ccc3OCC)nc12`
a: 5.52

====

# assay.explanation: PK Phase (Group 2): plasma concentrations and pharmacokinetics of Compound 18 and its metabolite Compound 4 after once daily ocular instillation of Compound 18 nanosuspension for 7 days
# Assay type: in vivo, New Zealand white rabbits
# cond: male, New Zealand white, rabbit, plasma, other: ocular instillation (eye drop), 0.821 mg/kg/day, 0.5 h; Mean of 4 animals, BQL set to 0; read-out: Day 7 Compound 18 Plasma Concentration
value.kind: concentration at 0.5 h
In your response, put the unit directly after the numeric value.

q: Would you kindly share the measured concentration at 0.5 h for CCCc1nn(C)c2c(=O)[nH]c(-c3cc(S(=O)(=O)N4CC(CCCO[N+](=O)[O-])C4)ccc3OCC)nc12 [Compound 18] ?
a: 0.0811 ng/mL

====

# assay.explanation: PK Phase (Group 2): plasma concentrations and pharmacokinetics of Compound 18 and its metabolite Compound 4 after once daily ocular instillation of Compound 18 nanosuspension for 7 days
# Format: in vivo, New Zealand white rabbits
# cond: male, New Zealand white, rabbit, plasma, topical or ocular, 0.8 mg/kg, plasma, Day 7, Compound 18 0.8 mg/kg ocular instillation; animal 207664
Quick list: Tmax per entry.
Only the number, expressed in min, is required.

CCCc1nn(C)c2c(=O)[nH]c(-c3cc(S(=O)(=O)N4CC(CCCO)C4)ccc3OCC)nc12 : 30

Proceed to the following item.
q: I would be grateful if you could share the reported Tmax for `CCCc1nn(C)c2c(=O)[nH]c(-c3cc(S(=O)(=O)N4CC(CCCO[N+](=O)[O-])C4)ccc3OCC)nc12` .
a: 60

====

# assay.explanation: PK Phase (Group 2): plasma concentrations and pharmacokinetics of Compound 18 and its metabolite Compound 4 after once daily ocular instillation of Compound 18 nanosuspension for 7 days
# Assay type: in vivo, New Zealand white rabbits
# cond: male, New Zealand white, rabbit, plasma, other: ocular instillation (eye drop), 0.821 mg/kg/day, 2 h; Mean of 4 animals, BQL set to 0; read-out: Day 7 Compound 18 Plasma Concentration
# Procedure: This example illustrates the procedures and results for the levels of Compound 18 and its metabolite Compound 4 in plasma and ocular tissues of normotensive rabbits following ocular instillation of Compound 18 once daily for 7 consecutive days. […] Plasma and tissue samples from treated animals (Groups 1-3) were analyzed for Compound 18 and its metabolite Compound 4 concentrations by LC-MS/MS. […] BA Assay: Quantitation Range 0.05 to 100 ng/mL for Compound 18, 0.15 to 100 ng/mL for Compound 4. […]
value.kind: concentration at 2 h (ng/mL)
The figure you give is taken to be in ng/mL; do not add the unit.

q: Could you share which concentration at 2 h value was measured for `CCCc1nn(C)c2c(=O)[nH]c(-c3cc(S(=O)(=O)N4CC(CCCO[N+](=O)[O-])C4)ccc3OCC)nc12` ?
a: 0.0657

====

CLint scaled at 1 µM: recorded values
# assay.explanation: Metabolic stability in human liver microsomes
# Assay type: in vitro ADME
# cond: 37° C., 0-60 minutes
# Protocol: This example illustrates the metabolic stability of selected compounds in human liver microsomes samples. Both test and control compound solutions were prepared by diluting 5 μL of the respective stock solutions (10 mM in DMSO) containing either the test or control compound with 495 μL of acetonitrile (ACN) to give intermediate solutions with concentrations of 100 μM (99% ACN). β-Nicotinamide adenine dinucleotide phosphate tetrasodium salt (NADPH.4Na) was purchased from BONTAC (cat. No. BT04). […]
Write the value in mL/min/kg as a bare number.

q: Query (molecule): CCCc1nn(C)c2c(=O)[nH]c(-c3cc(S(=O)(=O)N4CC(NCCCO[N+](=O)[O-])C4)ccc3OCC)nc12 [Compound 22] ; field requested: CLint scaled at 1 µM
a: 358
